test: yeast display, Sf9 membrane polyspecificity reagent, FACS + sequencing; frameworks hold sequencing errors
Result Type: polyreactivity (PSR sort gate)

For orientation, consider the following solved cases.
Sequence: QVQLVESGGGLVQAGGSLRLSCAASGSTFASNVMGWYRQAPGKERELVAAISRSGGNTYYADSVKGRFTISRDIAKNTVYLQMNSLKPEDTAVYYCAKYPFTRISYDYWGQGTLVTVSS
Result Type: polyreactivity (PSR sort gate)
Result: high polyreactivity

Sequence: QVQLVESGGGLVQAGGSLRLSCAASGFIFYSNAMGWYRQAPGKERELVAAISRGGGSTYYADSVKGRFTISRDNAKNTVYLQMNSLKPEDTAVYYCAKRRLSPQDDYWGQGTQVTVSS
Result Type: polyreactivity (PSR sort gate)
Result: high polyreactivity

Sequence: QVQLVESGGGLVQAGGSLRLSSAASGRIFDANDMGWYRQAPGQERELVAVISSRGGSTYYADSVKGRFTISRDNAKNTVDLQMNSLKPEEAAVYYCAKGLSVAGYDYWGQGTQVTVSS
Result Type: polyreactivity (PSR sort gate)
Result: low polyreactivity

Sequence: QVQLVESGGGLVQAGGSLRLSCAASGPIFVYYARGWYREAPGKEREFVAAISASGGSTYYADSVKGRFTISRDTAKNTVYLQMNSLKPEDPAVYYCAADRLRNRPRGLREYYWGQGTQVTVSS
Result Type: polyreactivity (PSR sort gate)
Result: low polyreactivity

What value of polyreactivity (PSR sort gate) has been reported for the following sequence? QVQLVESGGGLVQAGGSLRLSCAASGSTFWEYVMGWYRQAPGKERELVAAISDSGGSTYYADSVKGRFTISRDNAKNTVYLQMNSLKPEDTAVYYCNADWSWYNYYDFDYWGQGTQVTVSS
low polyreactivity

What value of polyreactivity (PSR sort gate) has been reported for the following sequence? QVQLVESGGGLGQAGGSLRLSCAASGRIFDVYAMGWYRQAPGKERELVATISSSGGATYYADSVKGRFTISRDNAKYTVYLQMNSLKPEDTAVYYCATTYRPTFRRHYNYWGQGTQVTVSS
low polyreactivity

What value of polyreactivity (PSR sort gate) has been reported for the following sequence? QVQLVESGGGLVQAGGSLRLSCAASGRTFRYNAMGWYRQAPGKERELVAAITWSGGSTYYADSVKGRFTISRDNAKNTVYLQMNSLKPEDTAVYYCNKVTWHQGHDYWGQGTQVTVSS
low polyreactivity

What value of polyreactivity (PSR sort gate) has been reported for the following sequence? QVQLVESGGGLVQAGGSLRLSCAASGGTFESYTMGWYRQAPGKERELVATISTSGGRTYYADSVKGRFTISRDNAKNTVYLQMHSLKPEDTAVYYCNKVSDAYGEYVTLHLDYWGQGTLVTVSS
low polyreactivity

---

test: yeast display, Sf9 membrane polyspecificity reagent, FACS + sequencing; frameworks hold sequencing errors
Result Type: polyreactivity (PSR sort gate)

Sequence: QVQLVESGGGLVQAGGSLRLSCAASGRIFSKYAMGWYRQAPGKERELVAAIRSGGRTYYADSVKGRFTISRDNAKNTVYLQMNSLKPEDTAVYYCAKGTFRYPFSFTFLGYDYWGQGTQVTVSS
polyreactivity (PSR sort gate): high polyreactivity
--
Sequence: QVQLVESGGGLVQAGGSLRLICAASGFIFDAYAMGWYRQAPGKERELVAAISRTGGSTYYADSVKGRFTISRDNAKNTVYLQMNSLKPEDTAVYYCTAYKSHDDYYWGQGTQITVSS
polyreactivity (PSR sort gate): high polyreactivity
--
Sequence: QVQLVESGGGLVQAGGSLRLSCAASGRILTFNAMGGYRQAPVKERELVASISNGGSTIYADSVKGRFSISRDNAKNTVYLQMNSLKPEDTAVYYCAALNASQGTVTFYIFDYWGQGTQVTVSS
polyreactivity (PSR sort gate): low polyreactivity
--
Sequence: QGQRVESGGGLVQAGGSLRLSCAASGFIFSYYTMGWYRQAPGKERELVAAISSTGRTNYADSVKGRFTISRDNAKHTVYLQMNSLKPDDTAFYYCNAAKLSYGPWRGYYKLDVWGQGTQVTVSS
polyreactivity (PSR sort gate): high polyreactivity
--
Sequence: QVQLVESGGGLVQAGGSLRLSCAASGRTFDGNVMGWNRQAPGKERELVAAITASGGRTYYADSVKGRFTISRDNANNTVYIEMNSLNPEDTAVYYCAARIYRVYYVHFAPYYYWGQGTQVTVSS
polyreactivity (PSR sort gate): high polyreactivity
--
Sequence: QVQLVESCGGLVQAGGSLRISCAASGRIFRPYAMGWYRQAPGPEREFVAAITSGSNTYYADSVKWRFTISRDNAKNTVYLQMNSLKPEDTAFYYCAAVQRKRAPAETAYGYWGQGPQVTVSS
polyreactivity (PSR sort gate): high polyreactivity

What value of polyreactivity (PSR sort gate) has been reported for the following sequence? QDQLVESGGGLVQAGGSLRLSCAASGSTFGVNAMGWYRQAPGKERELVAIITSTTYSDSVKGRFTISRDNAKNTVYLQMNSLKPEDTAVYYSAADSLLVLFDYWGQGTQVTVSS
low polyreactivity

What value of polyreactivity (PSR sort gate) has been reported for the following sequence? HVQLVESGGGLVQAGGSLRLSCAASGRTFGIYAMGWYRHAPGKQRELVAAISKIGTRTYYADSVKGRFTISRDNAKNTVYLQMNSLNPEDTAVYYCAAYPVDAVYQAYRYPYYDEMDYWGQGTQVTVSS
low polyreactivity

What value of polyreactivity (PSR sort gate) has been reported for the following sequence? QVQLVESGGGLVQAGGSLRLSCAASGSSFRYNAMGWYREAPGKEREMVAAITSSATSTYYADSVKGRFTISRDNAKNTVYLQMNSLKPEATAVYYCAAPPVYKWVSSRYDYWGQGTQVTVSS
low polyreactivity

What value of polyreactivity (PSR sort gate) has been reported for the following sequence? QVQLVESGGGLVQAGGSLRLSCAATGIIFSWYDMGWYRQAPGKERELVAAITSGGSTYYADSVKGRFTISRDNAKNTVYLLMNSLKPEDTAVYYCNRYSYLFPYYWKYDYCGQGTQVTVSS
high polyreactivity

What value of polyreactivity (PSR sort gate) has been reported for the following sequence? QVQLVESGGGLVQAGGSLRLSCAASGRIFWVYAMGWYRQAPGKERELVAAISLSGGRTYYADSVKGRFTISRDNAKNTVYLEMNSLKPEDTAVYYCNAVYPKRGGGRIVDYWGQGTQVTVSS
high polyreactivity

---

test: yeast display, Sf9 membrane polyspecificity reagent, FACS + sequencing; frameworks hold sequencing errors
Result Type: polyreactivity (PSR sort gate)

For orientation, consider the following solved cases.
Sequence: QVQLVESGGGLVQAGGSLRLSCAASGSIFSANARGWYRQAPGKERELVASITGDGSTNYADSVKGRFTISRDNAKNPGYLQMNSLKPEDTAVYYCAADIGSWYDYWGQGTQVTGSS
polyreactivity (PSR sort gate): low polyreactivity
--
Sequence: QVQLVESGGGLVQAGGSLRLSCAASGRIYWNTMGWYRQAPGKERELVASISTGGGRTYYADSVKGRFTISRDNAKNTVYLQMNSLKPEDTAVYYCAVRSYGHGFDYWGQGTQVTVSS
polyreactivity (PSR sort gate): high polyreactivity
--
Sequence: QVQLVESGGGLVQAGGSLRLSCDASGRTFVVNAMGWYRQAPGKERELVAAITRRGGITYYADSVKGRFTISRDNAKNTVYLQMNSLKPEDTAVYYCAADRSYYPDTRTTYGYNYWGQGTQVTVSS
polyreactivity (PSR sort gate): low polyreactivity
--
Sequence: QVQLVESGGGLVQAGGSLRLSCAASGRIFLLNAMGWSRQAPGKERELVAAIDIIGGSTYYADSVKGRFTISRDNAKNTVYLQMNSLKPEDTAVFYCAAEADFWRFVEYDYWGQGTQVTVSS
polyreactivity (PSR sort gate): low polyreactivity

Below: the item to evaluate.
What value of polyreactivity (PSR sort gate) has been reported for the following sequence? QVQLVESGGGLVQAGGSLRLSCAPSGSIFPYAMGWYRQAPGKERELVAAITRSGASTYYADSVKGRFTISRDNAKNTVYLQLNSLKPEDTAVYYCAAYALRGVRYPYRVDFYYWGQGTQVTVSS
high polyreactivity

---

test: yeast display, Sf9 membrane polyspecificity reagent, FACS + sequencing; frameworks hold sequencing errors

Sequence: QVQLVESGGGLVQAGGSLRVSCAASGRTFRYYEMGWYRQAPGKERELVAAISWSGGSTYYADSVKGRFTISRDNAKNSVYLQMNSLKPEDTAVYYCGAPKPIYSYPTYYYWGQGTQVTVSS
polyreactivity (PSR sort gate): high polyreactivity
//
Sequence: QVQLVESGVGLVQAGGSLSLSCAASGSTFYKYTMGWYRQAPGKESELVAAISGSGTTTYYADSVKGRFTISRDYAKNTVFLQINSLKPEDTAVYYCAAETYSPDREYGYWGLGTQVTVSS
polyreactivity (PSR sort gate): high polyreactivity

---

assay: yeast display, Sf9 membrane polyspecificity reagent, FACS + sequencing; frameworks hold sequencing errors
Result Type: polyreactivity (PSR sort gate)

For orientation, consider the following solved cases.
Sequence: QVQLVESGGGLVHAGGSLRLSCASTGFIYQPYAMGWYRQAPGKEMELVAAITSRGGRTYYADSVKGRFTISRDIANNTVYLQMNRLNPVDTAVYYCNADIYASEYYYWGQGTQVTVSS
polyreactivity (PSR sort gate): low polyreactivity
//
Sequence: QVQLVESGGGLVQAGGSLRLSCAASGIIFFWNAMGWYRQAPGKERELVAAISSGGSTYADSVKGRFTISRDNAKNTVYLQMNSLKPEDTAVYYCAARFYHGYRPYSAIYGYGYWGQGTQVTVSS
polyreactivity (PSR sort gate): low polyreactivity
//
Sequence: QVQLVESGGGLVQAGGSLRLSCAASGITFKYYAMGWYRQAPGKESELVAAISRSGSSTYYADSVKGRFTISRDNAKNTVYLQINSLTPEDTAVYYCAADWKSKRTDKYDSWGQGTQVTVSS
polyreactivity (PSR sort gate): high polyreactivity
//
Sequence: QVQLVESGGGLVQAGGSLRLSCAASGSTFPKNAMGWTIQAPGKERELVADINTGGSTYYADSVKGRFTISRDNAKNTVYLQMNSLIPEDTAVYYCNTQSFYFVSYSSSRYLRYYWGQVTQVTVSS
polyreactivity (PSR sort gate): low polyreactivity

Below: the item to evaluate.
What value of polyreactivity (PSR sort gate) has been reported for the following sequence? QVQLVESGGGLVQAGGSLRLSCAASGSTFYGYTMGWYRQAPGKERELVAAISSSGSSTYYADSVKGRFTISRDNAKNTVYLQMNSLKPVDTAVYYCAAATRVPGHGSTSYYYWGQGTQVTVSS
high polyreactivity
